Target: T1, recombinant human c-Met extracellular domain (R&D systems) (human, UniProt P08581 25-932)
T1 construct: extracellular domain; Bought reagent; also called coated extracellular domain of c-Met; recombinant c-Met
T1 sequence (P08581 25-932): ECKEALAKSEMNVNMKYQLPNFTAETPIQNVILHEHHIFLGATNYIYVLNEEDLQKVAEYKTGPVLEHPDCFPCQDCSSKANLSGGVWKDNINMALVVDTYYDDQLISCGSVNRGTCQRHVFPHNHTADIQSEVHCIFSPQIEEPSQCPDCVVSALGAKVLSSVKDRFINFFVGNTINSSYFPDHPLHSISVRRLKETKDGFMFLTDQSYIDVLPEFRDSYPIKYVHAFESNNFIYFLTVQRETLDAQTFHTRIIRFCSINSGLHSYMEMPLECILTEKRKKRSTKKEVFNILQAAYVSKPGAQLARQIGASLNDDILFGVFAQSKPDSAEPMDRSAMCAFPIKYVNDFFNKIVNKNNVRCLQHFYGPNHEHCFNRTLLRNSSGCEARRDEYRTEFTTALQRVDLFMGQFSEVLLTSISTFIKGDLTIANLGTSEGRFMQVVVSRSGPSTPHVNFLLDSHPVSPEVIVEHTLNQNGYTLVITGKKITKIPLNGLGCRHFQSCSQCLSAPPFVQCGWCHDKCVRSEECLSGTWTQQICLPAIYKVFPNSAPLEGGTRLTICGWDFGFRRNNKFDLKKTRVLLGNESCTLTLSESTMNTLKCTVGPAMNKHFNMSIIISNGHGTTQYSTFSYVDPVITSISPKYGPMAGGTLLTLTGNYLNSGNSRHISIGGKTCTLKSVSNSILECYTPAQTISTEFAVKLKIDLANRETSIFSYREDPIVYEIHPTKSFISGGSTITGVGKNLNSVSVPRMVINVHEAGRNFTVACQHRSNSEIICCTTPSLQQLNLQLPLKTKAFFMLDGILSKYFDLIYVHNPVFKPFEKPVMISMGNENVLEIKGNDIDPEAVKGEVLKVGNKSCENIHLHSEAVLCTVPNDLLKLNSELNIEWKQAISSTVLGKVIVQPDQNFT
Assay: competition ELISA, residual Europium-HGF signal at 615 nm at the lower plateau of the fit; sheet prints no competing mAb ~66000, no HGF-Europium ~600; upper panel
endpoint.label: Bottom

{"binder": "anti-c-Met HuMab 006 (IgG1) (antibody, V domains shown, also called TH1016-006; PC1016-006) VH: QVQLVQSGAEVKKPGSSVKVSCKASGGTFSSFGIGWVRQAPGQGLEWMGRIFPILGTANYAQMFQGRVTITADKSTSTAYMELTSLRSEDTAVYYCARDVGYDSADAFDIWGQGTMVTVSS VL: DIQMTQSPSSLSASVGDRVTITCRASQGISSWLAWYQQKPEKAPKSLIYAASSLQSGVPSRFSGSGSGTDFTLTISSLQPEDFATYYCQQYNSYPPTFGQGTKVEIK", "endpoint.label": "Bottom", "result": "5630 RFU"}
{"binder": "anti-c-Met HuMab 005 (IgG1) (antibody, V domains shown, also called TH1016-005; PC1016-005) VH: QVQLVQSGAEVKKPGSSVKVSCKASGGTFSSYGFGWVRQAPGQGLEWMGRISPILGIANYAQMFQGRVTITADKSTSTAYMELSSLRSEDTAVYYCARDVGYDWPDTFDIWGQGTMVIVSS VL: DIQMTQSPSSLSASVGDRVTITCRASQGISSWLAWYQQKPEKAPKSLIYAASSLQSGVPSRFSGGGSGTDFTLTISSLQPEDFATYYCQQYNSFPPTFGQGTKVEIK", "endpoint.label": "Bottom", "result": "6940 RFU"}
{"binder": "anti-c-Met HuMab 035 (IgG1) (antibody, V domains shown, also called P1016-035; TH1016-035-D09) VH: EVQLVQSGAEVKKPGESLKISCKGSGYSFTSYWIGWVRQMPGKGLEWMGIIYPGDSDTRYSPSFQGQVTISADKSISTAYLQWNSLKASDTAMYYCARQEITGEFDYWGQGTLVTVSS VL: AIQLTQSPSSLSASVGDRVTITCRASQGISSALAWYQQKPGKAPKLLIYDASSLESGVPSRFSGSGSGTDFTLTISSLQPEDFATYYCQQFNSYPMYTFGQGTKLEIK", "endpoint.label": "Bottom", "result": "23300 RFU"}
